Data origin, for the record: patent US8063225B2

Test system: H929
TEST METHOD NOTES: Cell proliferation inhibition, MTT assay, H929
Assay type: cell-based
STUDY CONDITIONS: Homo sapiens, NCI-H929, 72 h, H929 multiple myeloma cells, 3-day proliferation
Excerpt: IGF1R and other tyrosine kinase inhibitors can inhibit the proliferation of certain cancer cell lines indicating their possible therapeutic utility for treating the corresponding cancer types. […] The plated cells are mixed with the Cell Titer-Glo developing reagent and counted in a luminescence multiwell plate reader according to the standard manufacturer's protocol to generate IC50 curves for cell proliferation inhibition. […]
Answer each item with its documented IC50.

Guide cases for IC50, answers given:
{"COMPOUND": "CCc1cc2c(cc1OCC(=O)CNc1cc[nH]c(=O)c1-c1nc3cc4c(cc3[nH]1)C(=O)N(C1CCN(C)CC1)C4)OCO2 [drawing 842]", "IC50": "500 to 1000 nM"}
{"COMPOUND": "Cc1ccc(OCC(=O)CNc2cc[nH]c(=O)c2-c2nc3cc4c(cc3[nH]2)CN(C2CCN(C)CC2)C4=O)c(C)c1 [drawing 838]", "IC50": "< 500 nM"}
{"COMPOUND": "CN1CCC(N2Cc3cc4[nH]c(-c5c(NCC(=O)COc6ccccc6Br)cc[nH]c5=O)nc4cc3C2=O)CC1 [drawing 841]", "IC50": "< 500 nM"}
{"COMPOUND": "Cc1ccc(OCC(=O)CNc2cc[nH]c(=O)c2-c2nc3cc4c(cc3[nH]2)CN(CCCN2CCCC2)C4=O)c(C)c1 [drawing 840]", "IC50": "500 to 1000 nM"}

For H929, provide IC50 of COc1ccc(OCC(=O)CNc2cc[nH]c(=O)c2-c2nc3cc4c(cc3[nH]2)C(=O)N(C2CCN(C)CC2)C4)c(Cl)c1 [drawing 843] please. 500 to 1000 nM

###

TESTED ON: IGF1 receptor (Homo sapiens)
Construct: MCF7 human breast cancer cells expressing IGF1 receptor; endogenous in cells
Sequence (P08069 741-1367 limits assumed): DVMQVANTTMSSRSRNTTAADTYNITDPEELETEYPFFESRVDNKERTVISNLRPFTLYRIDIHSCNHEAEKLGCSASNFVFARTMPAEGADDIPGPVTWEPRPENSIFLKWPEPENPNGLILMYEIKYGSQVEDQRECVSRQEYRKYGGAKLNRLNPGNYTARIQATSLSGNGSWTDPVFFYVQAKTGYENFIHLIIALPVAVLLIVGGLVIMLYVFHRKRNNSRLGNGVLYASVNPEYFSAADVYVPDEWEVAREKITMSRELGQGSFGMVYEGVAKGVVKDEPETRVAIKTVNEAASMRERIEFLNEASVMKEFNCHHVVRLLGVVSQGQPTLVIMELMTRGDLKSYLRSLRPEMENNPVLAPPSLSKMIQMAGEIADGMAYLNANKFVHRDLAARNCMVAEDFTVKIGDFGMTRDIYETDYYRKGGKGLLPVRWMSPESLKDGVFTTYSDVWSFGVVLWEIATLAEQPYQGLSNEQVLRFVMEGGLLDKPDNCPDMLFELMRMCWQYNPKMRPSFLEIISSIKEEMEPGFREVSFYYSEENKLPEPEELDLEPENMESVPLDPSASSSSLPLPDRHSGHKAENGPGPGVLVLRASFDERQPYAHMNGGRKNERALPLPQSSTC
Sequence (P08069 31-736 partner limits assumed): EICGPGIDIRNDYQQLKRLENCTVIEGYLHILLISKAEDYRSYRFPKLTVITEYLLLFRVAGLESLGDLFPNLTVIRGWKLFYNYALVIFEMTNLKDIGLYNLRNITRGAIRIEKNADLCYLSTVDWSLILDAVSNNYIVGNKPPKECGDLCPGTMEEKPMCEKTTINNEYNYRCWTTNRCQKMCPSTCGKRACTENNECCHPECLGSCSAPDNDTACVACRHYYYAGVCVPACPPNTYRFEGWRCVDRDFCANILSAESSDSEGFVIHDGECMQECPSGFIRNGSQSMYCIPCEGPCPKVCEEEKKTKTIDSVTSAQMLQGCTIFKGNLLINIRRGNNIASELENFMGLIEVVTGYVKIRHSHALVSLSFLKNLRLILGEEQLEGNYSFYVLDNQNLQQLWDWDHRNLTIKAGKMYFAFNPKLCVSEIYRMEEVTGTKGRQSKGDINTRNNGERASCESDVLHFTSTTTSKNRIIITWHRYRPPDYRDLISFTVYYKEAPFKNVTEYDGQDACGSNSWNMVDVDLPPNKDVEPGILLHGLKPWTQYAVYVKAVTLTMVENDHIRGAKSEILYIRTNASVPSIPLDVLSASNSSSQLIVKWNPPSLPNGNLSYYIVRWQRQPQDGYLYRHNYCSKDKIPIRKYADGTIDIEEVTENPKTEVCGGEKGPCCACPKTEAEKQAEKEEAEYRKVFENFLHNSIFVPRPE
TEST METHOD NOTES: ELISA-based assay of IGF1 receptor autophosphorylation inhibition in cells
STUDY CONDITIONS: IGF1R phosphorylation inhibition in MCF7 cells
pIC50: −log10 of the molar value.
Answer each item with its documented pIC50.

{"MOLECULE": "Cc1ccc2c(ccn2C[C@H](O)CNc2cc[nH]c(=O)c2-c2nc3cc4c(cc3[nH]2)C(=O)N(C2CCN(C)CC2)C4=O)c1 [compound 131]", "OBSERVED RESULT": "5.30 to 6.30"}
{"MOLECULE": "CN1CCC(N2C(=O)c3cc4nc(-c5c(NC[C@@H](O)COc6ccc(F)cc6)cc[nH]c5=O)[nH]c4cc3C2=O)CC1 [compound 21]", "OBSERVED RESULT": "4.82 to 5.30"}
{"MOLECULE": "Cc1ccc(OC[C@H](O)CNc2cc[nH]c(=O)c2-c2nc3cc4c(cc3[nH]2)C(=O)N(C2CCN(C)CC2)C4=O)cc1Cl [compound 99]", "OBSERVED RESULT": "< 4.82"}
{"MOLECULE": "Cc1ccc(OC[C@@H](O)CNc2cc[nH]c(=O)c2-c2nc3cc4c(cc3[nH]2)C(=O)N([C@@H]2CCN(C)C2)C4=O)c(C)c1 [compound 107]", "OBSERVED RESULT": "4.82 to 5.30"}
{"MOLECULE": "O=C1c2cc3nc(-c4c(NC[C@@H](O)c5cccc(Cl)c5)cc[nH]c4=O)[nH]c3cc2C(=O)N1CC1CCN(CCO)CC1 [compound 13]", "OBSERVED RESULT": "5.30 to 6.30"}

Dear colleague, could you please provide pIC50 for the molecules listed below?
1. Cc1ccc(OC[C@H](O)CNc2cc[nH]c(=O)c2-c2nc3c(C)c4c(cc3[nH]2)CN(C2CCN(C)CC2)C4=O)c(C)c1 [compound 140]
2. Cc1ccc(OC[C@H](O)CNc2cc[nH]c(=O)c2-c2nc3cc4c(cc3[nH]2)C(=O)N(C2CCN(C)CC2)C4=O)c(C)c1 [compound 59]
3. Cc1ccc(OC[C@@H](O)CNc2cc[nH]c(=O)c2-c2nc3cc4c(cc3[nH]2)C(=O)N(C2CCN(C)CC2)C4=O)c(C)c1 [compound 64]
4. CN1CCC(N2C(=O)c3cc4nc(-c5c(NC[C@@H](O)COc6cccc(Cl)c6F)cc[nH]c5=O)[nH]c4cc3C2=O)CC1 [compound 96]
5. CCN1CCC(N2C(=O)c3cc4nc(-c5c(NC[C@@H](O)COc6ccc(C)cc6C)cc[nH]c5=O)[nH]c4cc3C2=O)CC1 [compound 143]

["5.30 to 6.30", "5.30 to 6.30", "< 4.82", "4.82 to 5.30", "> 6.30"]

Dear colleague, could you please provide pIC50 for the molecules listed below?
1. COc1ccc(OC[C@H](O)CNc2cc[nH]c(=O)c2-c2nc3cc4c(cc3[nH]2)C(=O)N(C2CCN(C)CC2)C4=O)c(OC)c1OC [compound 93]
2. CN1CCCC1CCN1C(=O)c2cc3nc(-c4c(NC[C@@H](O)c5cccc(Cl)c5)cc[nH]c4=O)[nH]c3cc2C1=O (stereo partly shown) [compound 18]
3. CN1CCC(N2C(=O)c3cc4nc(-c5c(NC[C@@H](O)COc6cccc(OC(F)(F)C(F)F)c6)cc[nH]c5=O)[nH]c4cc3C2=O)CC1 [compound 91]

["5.30 to 6.30", "< 4.82", "5.30 to 6.30"]
